Values from patent US8658791B2

Tested on: barnyardgrass (Echinochloa crus-galli)
Assay: General postemergence herbicidal activity, ECHCG
Format: in vivo
Conditions: Echinochloa crus-galli, post-emergence, 336 h, 140 g ai/ha, postemergence spray, visual score after 14 days, 0 = no injury, 100 = complete kill; read-out: Post-emergent Weed Control ECHCG
quantity: pest or weed control at 140 g/ha (%)
Output spec: scalar in %, unitless text.

See these solved cases before continuing.
Problem: Recorded pest or weed control at 140 g/ha of "C=Cc1c(N)nc(-c2ccc(Cl)cc2F)nc1C(=O)OC" , please.
Solution: 80

Problem: Recorded pest or weed control at 140 g/ha of "C=Cc1c(C(=O)OC)nc(-c2ccc(Cl)cc2)c(F)c1N" , please.
Solution: 70

--- query ---
Problem: Recorded pest or weed control at 140 g/ha of "C=Cc1c(N)nc(-c2cc(F)c(Cl)cc2F)nc1C(=O)O" , please.
Solution: 90

----------
System: lambsquarter (Chenopodium album)
Test: General postemergence herbicidal activity, CHEAL
Format: in vivo
Settings: Chenopodium album, post-emergence, 336 h; 70 g ai/ha, postemergence spray, visual score after 14 days, 0 = no injury, 100 = complete kill; read-out: Post-emergent Weed Control CHEAL
Overview of recorded pest or weed control at 70 g/ha for various molecules
Output spec: scalar in %, unitless text.

See these solved cases before continuing.
Problem: Test system lambsquarter (Chenopodium album); read-out pest or weed control at 70 g/ha; what value for "C=Cc1c(N)nc(-c2ccc(Cl)c(OC)c2F)nc1C(=O)OC" ?
Solution: 100

Problem: Test system lambsquarter (Chenopodium album); read-out pest or weed control at 70 g/ha; what value for "C=Cc1c(N)nc(-c2ccc(Cl)c(F)c2F)nc1C(=O)O" ?
Solution: 100

Others:
Problem: Test system lambsquarter (Chenopodium album); read-out pest or weed control at 70 g/ha; what value for "C/C=C/c1c(N)nc(-c2ccc(Cl)c(OC)c2F)nc1C(=O)OC" ?
Solution: 95

Problem: Test system lambsquarter (Chenopodium album); read-out pest or weed control at 70 g/ha; what value for "C/C=C\c1c(N)nc(-c2ccc(Cl)c(OC)c2F)nc1C(=O)O" ?
Solution: 100

----------
Tested on: barnyardgrass (Echinochloa crus-galli)
Experiment: General postemergence herbicidal activity, ECHCG
Format: in vivo
Details: Echinochloa crus-galli, post-emergence, 336 h, 140 g ai/ha, postemergence spray, visual score after 14 days, 0 = no injury, 100 = complete kill; read-out: Post-emergent Weed Control ECHCG
quantity: pest or weed control at 140 g/ha (%)
Output spec: scalar in %, unitless text.

See these solved cases before continuing.
Problem: Recorded pest or weed control at 140 g/ha of CCc1c(N)nc(-c2ccc(Cl)c(OC)c2F)nc1C(=O)OC [Compound 21] , please.
Solution: 70

Problem: Recorded pest or weed control at 140 g/ha of C=Cc1c(N)nc(-c2cc(F)c(Cl)cc2F)nc1C(=O)OC [Compound 12] , please.
Solution: 50

Others:
Problem: Recorded pest or weed control at 140 g/ha of C=Cc1c(N)nc(C2CC2)nc1C(=O)OCC [Compound 4] , please.
Solution: 0

Problem: Recorded pest or weed control at 140 g/ha of C#Cc1c(N)nc(-c2ccc(Cl)c(OC)c2F)nc1C(=O)OC [Compound 24] , please.
Solution: 70

Problem: Recorded pest or weed control at 140 g/ha of C#Cc1c(N)nc(-c2ccc(Cl)c(OC)c2F)nc1C(=O)O [Compound 56] , please.
Solution: 75

Problem: Recorded pest or weed control at 140 g/ha of C=Cc1c(N)cc(-c2ccc(Cl)cc2F)nc1C(=O)O [Compound 60] , please.
Solution: 35

Problem: Recorded pest or weed control at 140 g/ha of C=C(F)c1c(N)nc(-c2ccc(Cl)c(OC)c2F)nc1C(=O)O [Compound 52] , please.
Solution: 90

Problem: Recorded pest or weed control at 140 g/ha of C=Cc1c(N)cc(-c2ccc(Cl)c(OC)c2F)nc1C(=O)O [Compound 59] , please.
Solution: 100

Problem: Recorded pest or weed control at 140 g/ha of C=Cc1c(N)nc(-c2ccc(Cl)c(N(C)C)c2F)nc1C(=O)O [Compound 51] , please.
Solution: 95
